Measured target: T1, mouse DLL4 overexpressed on cells (mouse, UniProt Q9JI71 27-686)
T1 construct: whole, on cells; also called CHO-mDLL4; CHO-mDII4
T1 sequence (Q9JI71 27-686): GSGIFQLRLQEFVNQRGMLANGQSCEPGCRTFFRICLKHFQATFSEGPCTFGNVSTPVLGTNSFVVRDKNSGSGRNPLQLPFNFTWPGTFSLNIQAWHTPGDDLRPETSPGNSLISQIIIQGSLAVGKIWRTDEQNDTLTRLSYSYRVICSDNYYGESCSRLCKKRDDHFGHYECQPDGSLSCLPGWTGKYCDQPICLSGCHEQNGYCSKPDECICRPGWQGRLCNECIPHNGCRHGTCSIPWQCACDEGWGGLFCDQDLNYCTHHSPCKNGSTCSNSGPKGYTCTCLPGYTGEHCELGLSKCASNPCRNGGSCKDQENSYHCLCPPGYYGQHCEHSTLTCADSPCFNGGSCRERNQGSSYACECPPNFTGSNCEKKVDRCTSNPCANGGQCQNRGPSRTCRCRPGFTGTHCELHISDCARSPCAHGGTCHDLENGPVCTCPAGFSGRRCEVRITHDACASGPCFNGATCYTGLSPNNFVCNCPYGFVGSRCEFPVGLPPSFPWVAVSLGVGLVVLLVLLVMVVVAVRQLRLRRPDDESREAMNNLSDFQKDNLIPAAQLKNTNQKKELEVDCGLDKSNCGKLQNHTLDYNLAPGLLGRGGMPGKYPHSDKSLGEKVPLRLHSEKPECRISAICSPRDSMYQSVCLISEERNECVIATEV
Assay explanation: FMAT, labelled hNotch1-Fc on CHO-mDLL4, periplasmic extract
Recorded endpoint: % inh
Param answer (str): number followed by unit.

// batch mode: one % inh value per listed entry
1. DLLBII96C03 (VHH, also called 96C3) VHH: EVQLVESGGGLVQPGGSLRLSCAASGFTFGNYDMSWVRQAPGKGPEWVSAINSGGGDTYYADSVKGRFTISRDNAKNTLYLQMNSLKPEDTAVYYCATPRGWGPTGPHEYGYWGQGTQVTVSS
2. DLLBII104B05 (VHH) VHH: EVQLVESGGGSVQAGGSLRLSCAASGSISRIDVMAWYRQAPGKERELVASISSGGSTNYADSVKGRFTISREYFKNMMYLQMNSLKFEDTAVYYCNADSRRGGVGNFFRSWGQGTQVTVSS

Return:
83%
78%
